Tested on: TK-10 renal
Assay: NCI tumour cell line growth inhibition, 48 h
Measured TGI of individual entries

The cases that follow already have their TGI on record.
O=c1[nH]ccc2nc(N3CCC(O)CC3)nc(Nc3cccc(C(F)(F)F)c3)c12    44.9 µM
O=C(c1ccco1)N(C(=S)N1CCN(c2ccccn2)CC1)C1CCCCC1    > 100 µM
O=C(O)c1ccc2c(c1)CC1(C2)Cc2ccccc2C1=O (configuration not stated)    > 100 µM
O=c1cc(CBr)c2ccc(O)cc2o1    > 100 µM
COC(=O)C12C3C4C5C3(C#N)C1C5(C(=O)OC)C42C(=O)N(C(C)C)C(C)C (configuration not stated)    > 100 µM

Prompt line: Recorded TGI of N#CC(Nc1ccccc1)c1ccc(C(C#N)Nc2ccccc2)cc1 (configuration not stated) , please.
Response line: > 100 µM

Prompt line: Recorded TGI of CN(/N=C/c1ccccn1)C1=NCCCCN1 , please.
Response line: > 100 µM

Prompt line: Recorded TGI of O=C(Nc1ccc(F)cc1F)c1cc(Br)ccc1O , please.
Response line: > 100 µM

Prompt line: Recorded TGI of O=C(N/N=C/c1ccccc1Cl)c1ccccc1Nc1ccnc(C(F)(F)F)c1 , please.
Response line: 3.87 µM

Prompt line: Recorded TGI of COc1ccc2cc3[n+](cc2c1OC)CCc1cc(O)c(O)cc1-3 , please.
Response line: > 100 µM

Prompt line: Recorded TGI of O=C1CCC2CCC1C2 (configuration not stated) , please.
Response line: > 100 µM

Prompt line: Recorded TGI of O=c1oc2ccccc2nc1/C=C(\O)c1ccc([N+](=O)[O-])cc1 , please.
Response line: > 100 µM

* * *

Tested on: UACC-62 melanoma
Assay: NCI tumour cell line growth inhibition, 48 h
Where a SMILES comes first, the peptide text is derived from it. [ ]: non-standard residue; d: D form. The star is where a group is joined. ξ: configuration not given here. NMeN = CN[C@@H](CC(N)=O)C(=O)O; NMeV = CN[C@H](C(=O)O)C(C)C; ξNMeV = CNC(C(=O)O)C(C)C; Boc = CC(C)(C)OC(=O)*; ξNMeA = CNC(C)C(=O)O
quantity name: GI50

The cases that follow already have their GI50 on record.
CCN=c1cc2sc3cc(NCC)c(C)cc3nc-2cc1C    6.88 µM
COc1c(Cl)c2c(c(OC)c1OC)-c1ccc(SC)c(=O)cc1[C@@H](NC(=O)OCC(F)(F)F)CC2    < 0.01 µM
O=CN1N=C(c2ccc(Cl)cc2)CC1c1cccc(Nc2ccnc3cc(Cl)ccc23)c1 (configuration not stated)    1.14 µM
O=S(=O)(c1ccc(N=C2NN=C(c3c[nH]c4ccccc34)CS2)cc1)N1CCOCC1    26.8 µM
COc1cc2c(Oc3ccc4[nH]c(C)cc4c3F)ccnc2cc1OCC1(N)CC1    1.64 µM
O=C([O][Hg][CH2]C1COCC([CH2][Hg][O]C(=O)c2ccccc2)O1)c1ccccc1 (configuration not stated)    16.4 µM
C=CCN(CC=C)C(=O)c1cc(C)nc2c1c(=O)n(-c1ccccc1)c(=O)n2CC(O)CN1CCN(c2ncccn2)CC1 (configuration not stated)    > 100 µM
COC(=O)C(C)N(C)C(=O)[C@H](CC(N)=O)N(C)C(=O)[C@@H]1CCCN1C(=O)[C@H](C(C)C)N(C)C(=O)C(C(C)C)N(C)C(=O)[C@@H](NC(=O)OC(C)(C)C)C(C)C (some centres not stated) (Boc-V[ξNMeV][NMeV]P[NMeN][ξNMeA]-OMe)    > 100 µM

Prompt line: Recorded GI50 of COc1cccc(-c2nc3sccn3c2-c2ccnc(NCCNS(=O)(=O)c3ccccc3)c2)c1 , please.
Response line: 1.29 µM

Prompt line: Recorded GI50 of O=c1[nH]ccc2nc(N3CCC(O)CC3)nc(Nc3cccc(C(F)(F)F)c3)c12 , please.
Response line: 1.84 µM

Prompt line: Recorded GI50 of CCOc1ccc(Nc2nc(-c3ccc4c(c3)NC(=O)CO4)cs2)cc1 , please.
Response line: 6.94 µM

Prompt line: Recorded GI50 of O=C(Nc1ccc(F)cc1F)c1cc(Br)ccc1O , please.
Response line: 1.23 µM

* * *

Measured TGI of individual entries
System: TK-10 renal
Assay: NCI tumour cell line growth inhibition, 48 h

The cases that follow already have their TGI on record.
O=C(Nc1cc[c]([Sb](=[O])([OH])[OH])cc1)c1ccccc1    > 100 µM
Cc1nn(-c2ccccc2)c2[nH]c(=S)cnc12    > 100 µM

Prompt line: Recorded TGI of NC(=S)N/N=C(\C(=O)Nc1cccc([N+](=O)[O-])c1)c1nc2ccc([N+](=O)[O-])cc2[nH]c1=O , please.
Response line: > 100 µM

Prompt line: Recorded TGI of C=C[C@H]1CCC/C=C/[C@@H]2C[C@H](O)C[C@H]2[C@H](O)/C=C/C(=O)O1 , please.
Response line: 0.5 µM

Prompt line: Recorded TGI of CC/C=C/C(=O)CC(O)(C(F)(F)F)C(F)(F)F , please.
Response line: > 100 µM

* * *

Measured TGI of individual entries
Test system: SF-295 CNS
Assay: NCI tumour cell line growth inhibition, 48 h

The cases that follow already have their TGI on record.
O=C1c2cc([N+](=O)[O-])ccc2-c2cccc(F)c21    > 100 µM
COC(=O)C12C(=O)O[C@H](C)C1(O)C(C)C(=O)N2C (stereo partly specified)    > 100 µM
Cc1cccc2[s+]snc12    > 100 µM

Prompt line: Recorded TGI of Nc1ccc2c3c(n(CCCCl)c(=O)c2c1)-c1cc2c(cc1C3=O)OCO2 , please.
Response line: > 100 µM

Prompt line: Recorded TGI of C=C1CC(C)(COc2ccc3ccc(=O)oc3c2)OC1=O (stereo unspecified) , please.
Response line: 20.8 µM

Prompt line: Recorded TGI of COC1=C(N2CC2)C(=O)c2nc3n(c2C1=O)CCC3 , please.
Response line: 2.07 µM

Prompt line: Recorded TGI of N#Cc1c(Cl)c2ccccc2n2c1nc1ccccc12 , please.
Response line: > 100 µM

Prompt line: Recorded TGI of CCCCCC(CO)C(O)(C(F)(F)F)C(F)(F)F (stereo unspecified) , please.
Response line: > 10 µM

Prompt line: Recorded TGI of CCCCCCCCCCC(O)C1CCC(C(O)CCC(O)C2CCC(CCCCCCC[C@H](O)CC3=C[C@@H](C)OC3=O)O2)O1 (stereo partly specified) , please.
Response line: > 100 µM

Prompt line: Recorded TGI of CC(=O)/C(=C\C1=CCCO1)C(=O)Nc1ccccc1C , please.
Response line: > 100 µM

Prompt line: Recorded TGI of O=C(CCc1ccc(O)cc1)NCCc1cccc(OCc2ccccc2)c1 , please.
Response line: > 100 µM

* * *

Test system: CAKI-1 renal
Experiment: NCI tumour cell line growth inhibition, 48 h
Measured TGI of individual entries

The cases that follow already have their TGI on record.
COc1c(Cl)c2c(c(OC)c1OC)-c1ccc(SC)c(=O)cc1[C@@H](NC(=O)OCC(F)(F)F)CC2    > 56.8 µM
COc1cc(NCc2ccc3nc(OC)c(OC)nc3c2)cc(OC)c1OC    > 100 µM
COC1CC(OC2CCC3(C)C(CCC45CCC(C6=CC(=O)OC6)C(C)(CCC43)C5=O)C2)OC(C)C1O (stereo not given)    80.1 µM
COc1cc2c(Oc3ccc4[nH]c(C)cc4c3F)ccnc2cc1OCC1(N)CC1    6.99 µM

Prompt line: Recorded TGI of CCOC(=O)c1c(-c2ccc(O)c(OC)c2)c(C#N)c(=S)n(C2OC(COC(C)=O)C(OC(C)=O)C(OC(C)=O)C2OC(C)=O)c1-c1ccccc1 (stereo not given) , please.
Response line: > 100 µM

Prompt line: Recorded TGI of NC(N)=N/N=C/c1c(-c2ccc([N+](=O)[O-])cc2)nc2n1CCS2 , please.
Response line: 34.4 µM

Prompt line: Recorded TGI of CNn1c(C)n[nH]c1=O , please.
Response line: > 100 µM

Prompt line: Recorded TGI of CC(C)C1CCC/C=C/C=C/C=C/C=C/C(OC2OC(C)C(O)C(N)C2O)CC2OC(O)(CC(O)CC(O)C(O)CCC(=O)O1)CC(O)C2C(=O)O (stereo not given) , please.
Response line: > 52.5 µM

Prompt line: Recorded TGI of O=C1CCC2CCC1C2 (stereo not given) , please.
Response line: > 100 µM

* * *

System: RPMI-8226 leukemia
Test: NCI tumour cell line growth inhibition, 48 h; in the data active means GI50 below about 0.43 µM; inactive means the rest
Use one of these outcomes when replying: t for active, f for inactive

A selection of reference data follows.
COc1ccc(-c2nc3ncccn3c2/C=C/C(=O)c2cc(OC)c(OC)c(OC)c2)cc1    f
CC(C)CNc1nc(-c2ccccc2)nc2ccccc12    f
NC(=N\N=C/c1cccc([N+](=O)[O-])c1)/C(N)=N\N=C/c1cccc([N+](=O)[O-])c1    f

Prompt line: Tell me the assay call for CC1(C)CC(n2cnc(-c3ccc(F)cc3)c2-c2ccnc(N)n2)CC(C)(C)N1 please.
Response line: f

Prompt line: Tell me the assay call for COc1cc2c(Oc3ccc4[nH]c(C)cc4c3F)ccnc2cc1OCC1(N)CC1 please.
Response line: f

Prompt line: Tell me the assay call for CC/C(=C(/CC)c1ccc(O)cc1)c1ccc([O-])cc1.CC/C(=C(/CC)c1ccc(O)cc1)c1ccc([O-])cc1.O=C([CH-]C(=O)c1ccccc1)c1ccccc1.O=C([CH-]C(=O)c1ccccc1)c1ccccc1.[Ti+4] please.
Response line: f

Prompt line: Tell me the assay call for Cc1cc(-c2nnc(N)nc2-c2ccc(F)cc2)cc(Cl)n1 please.
Response line: f

Prompt line: Tell me the assay call for CCC[CH2][Sn]([CH2]CCC)([O]C(=O)C(N)CSC)[O]C(=O)C(N)CSC (configuration not stated) please.
Response line: f

Prompt line: Tell me the assay call for Cc1cc(I)cc(CN(C)CCN2CCCC2)c1O please.
Response line: f

Prompt line: Tell me the assay call for CC[O-].CC[O-].O=C1C(c2ccccc2)=C([O-])c2ccccc21.O=C1C(c2ccccc2)=C([O-])c2ccccc21.[Ti+4] please.
Response line: f

Prompt line: Tell me the assay call for CCN=c1cc2sc3cc(NCC)c(C)cc3nc-2cc1C please.
Response line: t

Prompt line: Tell me the assay call for COc1ccc(-c2ccc(/C=N/n3c(COc4ccc(Cl)cc4Cl)nn(CN4CCN(C)CC4)c3=S)o2)c([N+](=O)[O-])c1 please.
Response line: f
